Data credit: ChEMBL document CHEMBL1201862

Tested on: MDA-MB-435
Assay: NCI tumour cell line growth inhibition, 48 h
Where a name gives a salt, the structure may show the parent alone. Activity calls are given as the source filed them. Cut-off read from the data, not from the text of the source: active = GI50 up to about 1.1 µM and inactive = higher.
Classes used: true = active, false = inactive

>>> label_value("Cc1cc(-c2nc3cc(F)ccc3s2)ccc1NC(=O)[C@@H](N)CCCCN")
"false"
>>> label_value("Cc1ccc(/N=C2N=C(Cl)/C(=C\\c3ccco3)N\\2)cc1")
"false"
>>> label_value("CC(Oc1ccc(Cl)cc1Cl)C(=O)NN1C(=O)CSC1c1ccccc1 (stereo not given)")
"false"
>>> label_value("COc1c(CC=C(C)C)c(O)c(C(CC(C)C)c2c(O)c(C(C)=O)c(O)c3c2OC(C(C)(C)O)C3)c(O)c1C(C)=O (stereo not given)")
"false"
>>> label_value("NC(=O)Cc1ncn(-c2ccccc2)n1")
"false"
>>> label_value("Cc1cn([C@H]2C=C[C@@H](CO)O2)c(=O)[nH]c1=O")
"false"
>>> label_value("CC(OC(=O)NCn1cc(-c2ccccc2)nn1)c1ccccc1 (stereo not given)")
"false"
>>> label_value("C/C(Cl)=N/OC(=O)Nc1ccc(F)c([N+](=O)[O-])c1")
"false"
>>> label_value("Cc1nc2ccc(S(=O)(=O)O)cc2c(=O)n1-c1ccc(C(=O)NN2C(=O)C(Cl)C2c2ccccc2O)cc1 (stereo not given)")
"false"
>>> label_value("CCN1C(=O)C(=C/C=C/c2ccc(N(CC)CC)cc2)C(=O)N(CC)C1=S")
"false"
>>> label_value("CC(Oc1ccccc1)C(=O)NN (stereo not given)")
"false"
>>> label_value("O=C(O)CCCSc1ccccc1")
"false"
>>> label_value("COC(=O)C1CCC(=O)N1C(c1ccc2c(c1)OCO2)c1ccc2c(c1)OCO2 (stereo not given)")
"false"
>>> label_value("CC1=NN(c2nc(N)nc(/C(C#N)=C/c3cccn3-c3cc(Cl)cc(Cl)c3)n2)C(C)(C)C1")
"false"
>>> label_value("OC1(C(F)(F)F)OCCN=C1C(F)(F)F (stereo not given)")
"false"
>>> label_value("CN(C)c1n/c(=N/Cc2ccccn2)ss1")
"false"
>>> label_value("O=C1OCC2=C1C(c1ccc(Cl)cc1)c1cc3c(cc1O2)OCO3 (stereo not given)")
"true"
>>> label_value("COc1cc(/C=C/C(=O)OCCc2ccccc2)ccc1O")
"false"
>>> label_value("COC1=CC(=O)c2c(ccc3ncnc(N)c23)C1=O")
"true"
>>> label_value("Cc1cc2c(C)cc(=O)[nH]c2cc1N")
"false"
>>> label_value("CCOc1ccc(/C=C2\\N=C(c3ccccc3)OC2=O)cc1")
"false"
>>> label_value("CC(=O)OCC1OC(n2cnc3nc(Br)[nH]c(=O)c32)C(OC(C)=O)C1OC(C)=O (stereo not given)")
"false"
>>> label_value("O=C1CNCCCN2CCN(CCCNCC(=O)Nc3ccc(cc3)S(=O)(=O)c3ccc(cc3)NC(=O)CNCCCN3CCN(CCCNCC(=O)Nc4ccc(cc4)S(=O)(=O)c4ccc(cc4)N1)CC3)CC2")
"false"
>>> label_value("Oc1ccc(C(O)C2CCCCN2)cc1O (stereo not given) [RIMITEROL HYDROBROMIDE]")
"false"
>>> label_value("CN(C)Cc1cc(C(=O)/C=C/c2ccccc2)cc(CN(C)C)c1O")
"false"
